Test system: E. coli TESEC Mtb DapB
Experiment description: growth (OD600 after 10 h); higher = more growth (less inhibition)
Applied conditions: arabinose induction (level): Low; compound 0.1 mM; raw OD600 reference: median of DMSO wells 0.227, cell-free background 0.041
Where a name gives a salt, the structure may show the parent alone.
Given measured growth, output MET if it is greater than or equal to 0.2 and NOT MET if not.

# example entries with known answers
| Compound | Assigned label |
| --- | --- |
| CN1CCC(=C2c3ccccc3CC(=O)c3sccc32)CC1 [Ketotifen fumarate] | MET |
| NC(=O)c1cnccn1 [Pyrazinamide] | MET |

Could you please find out whether CN(C/C=C/c1ccccc1)Cc1cccc2ccccc12 [Naftifine hydrochloride] has growth that meets 0.2 or exceeds it?
NOT MET

Could you please find out whether O=C(O)c1cc(-c2ccc(F)cc2F)ccc1O has growth that meets 0.2 or exceeds it?
NOT MET

Could you please find out whether COc1cc(N)c(Cl)cc1C(=O)NC1CCN(Cc2ccccc2)CC1 [Clebopride maleate] has growth that meets 0.2 or exceeds it?
MET

Could you please find out whether Nc1nc(O)c2ncn(CCC(CO)CO)c2n1 has growth that meets 0.2 or exceeds it?
MET

Could you please find out whether CC(=O)NS(=O)(=O)c1ccc(N)cc1 [Sulfacetamide sodic hydrate] has growth that meets 0.2 or exceeds it?
MET

Could you please find out whether CC1CCc2cc(F)cc3c(=O)c(C(=O)O)cn1c23 (centres undefined) has growth that meets 0.2 or exceeds it?
NOT MET

Could you please find out whether CNCCc1ccccn1 [Betahistine mesylate] has growth that meets 0.2 or exceeds it?
MET

Could you please find out whether O=C(O)Cc1ccccc1Nc1c(Cl)cccc1Cl [Diclofenac sodium] has growth that meets 0.2 or exceeds it?
NOT MET

Could you please find out whether CC(=O)c1ccc2c(c1)N(CCCN1CCC(CCO)CC1)c1ccccc1S2 has growth that meets 0.2 or exceeds it?
MET

Could you please find out whether NS(=O)(=O)c1cc(C2(O)NC(=O)c3ccccc32)ccc1Cl (centres undefined) has growth that meets 0.2 or exceeds it?
MET

Could you please find out whether CC(NCCC(c1ccccc1)c1ccccc1)c1ccccc1 (centres undefined) [Fendiline hydrochloride] has growth that meets 0.2 or exceeds it?
NOT MET

====

Tested on: E. coli TESEC Mtb DapB
Experiment description: growth (OD600 after 10 h); higher = more growth (less inhibition)
Applied conditions: arabinose induction (level): Low; compound 0.1 mM; raw OD600 reference: median of DMSO wells 0.227, cell-free background 0.041
Structures can show the parent of a compound that is named as a salt.
Property name: growth
Provide a numeric answer; units are not to be included.

# lookup: growth of CC[C@H]1OC(=O)[C@H](C)[C@@H](O[C@H]2C[C@@](C)(OC)[C@@H](O)[C@H](C)O2)[C@H](C)[C@@H](O[C@@H]2O[C@H](C)C[C@H](N(C)C)[C@H]2O)[C@](C)(O)C[C@@H](C)C(=O)[C@H](C)[C@@H](O)[C@]1(C)O
0.052

# lookup: growth of NC(CO)C(=O)NNCc1ccc(O)c(O)c1O (stereo unspecified) [Benserazide hydrochloride]
0.227

# lookup: growth of NCc1ccc(S(N)(=O)=O)cc1 [Mafenide hydrochloride]
0.251

# lookup: growth of OCCN1C[C@H](O)[C@@H](O)[C@H](O)[C@H]1CO
0.223

# lookup: growth of Cc1oncc1C(=O)Nc1ccc(C(F)(F)F)cc1 [Leflunomide]
0.255

# lookup: growth of CC(=O)[C@H]1CC[C@H]2[C@@H]3CCC4=CC(=O)CC[C@]4(C)[C@H]3CC[C@]12C
0.182

# lookup: growth of CC(C)(O)c1ccccc1CC[C@@H](SCC1(CC(=O)O)CC1)c1cccc(/C=C/c2ccc3ccc(Cl)cc3n2)c1
0.253

# lookup: growth of CCCCNc1ccc(C(=O)OCCOCCOCCOCCOCCOCCOCCOCCOCCOC)cc1 [Benzonatate]
0.206

# lookup: growth of CCOC(=O)n1ccn(C)c1=S
0.239

# lookup: growth of Nc1ccn([C@@H]2O[C@H](CO)[C@@H](O)C2(F)F)c(=O)n1
0.177
